The measured values listed here are drawn from the supplement of paper PMC13380429.

Tested on: Vero E6 infected with SARS-CoV-2
Assay: inhibition of SARS-CoV-2 cytopathic effect; higher = more antiviral protection, active = above 15
Conditions: 833.33 nM; 48 h
Entries annotated with measured inhibition of SARS-CoV-2 cytopathic effect
Quick note: give the figure in %, leave out the unit.

Need inhibition of SARS-CoV-2 cytopathic effect of O=C(c1cccc(Br)c1)N1CCC(N2CCCC2)CC1 , thanks.
2.16

What does the data say about its inhibition of SARS-CoV-2 cytopathic effect? Entry: CCCN(CCC)CCc1ccc(OC)c(OCCc2ccccc2)c1
0.13

--- query ---
Give the measured inhibition of SARS-CoV-2 cytopathic effect of CC[C@@H]1Cn2c(c3nc(-c4ccccc4)nc-3n(C)c2=O)N1 .
0.66
